Entry source: patent US8951999B2

- Assay system: recombinant human mPGES-1 (Homo sapiens, UniProt O14684)
- Sequence (O14684 1-152): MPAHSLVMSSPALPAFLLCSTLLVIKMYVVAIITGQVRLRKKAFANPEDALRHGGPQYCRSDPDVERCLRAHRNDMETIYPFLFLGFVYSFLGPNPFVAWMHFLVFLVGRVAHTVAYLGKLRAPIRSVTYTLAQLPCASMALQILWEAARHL
- Assay name: Assay B: mPGES-1 enzyme assay (modified)
- Assay type: biochemical
- Condition label: biological assay B (all other compounds); PGH2 final conc. 2 μM, HTRF; read-out: mPGES-1 inhibitory effect IC50
pIC50: −log10 of the molar value.
Readout label: pIC50

In [3]: df
Out[3]:
                                   compound  recorded_result
0  O=C(Nc1ccc(OCC(F)F)c(C(=O)Nc2ccc(Br)cc2)c1)c1cc(CNC(=O)C2(O)CC2)ccc1Cl             8.10
1  CC(C(=O)NCc1ccc(Cl)c(C(=O)Nc2ccc(OCC(F)F)c(C(=O)Nc3ccc(Br)cc3)c2)c1)N1CCCC1 (stereo not shown)             7.30
2  CC(C)(C(=O)NCc1ccc(Cl)c(C(=O)Nc2ccc(OCC(F)F)c(C(=O)NC3CCCOC3)c2)c1)C(F)(F)F (stereo not shown)             7.32
3  CC(C)(O)C(=O)NCc1ccc(Cl)c(C(=O)Nc2ccc(OCC(F)F)c(C(=O)Nc3ccc(Br)cc3)c2)c1             8.22
4  CC(C)(C(=O)NCc1ccc(Cl)c(C(=O)Nc2ccc(OCC(F)F)c(C(=O)Nc3cc(Cl)c4cc[nH]c4c3)c2)c1)C(F)(F)F             8.15
5  CC(C)(C)C(=O)NCc1ccc(F)c(C(=O)Nc2ccc(OCC(F)F)c(C(=O)Nc3ccc(Br)cc3)c2)c1Cl             7.82
6  CC(C)(C(=O)NCc1ccc(Cl)c(C(=O)Nc2ccc(OCC(F)F)c(C(=O)NCc3ccc(F)cc3C(F)(F)F)c2)c1)C(F)(F)F             8.40
